Test system: 922993-354-T-J3-PDC complex spheroids, viability, % test/control
Assay: Anticancer human tumor 922993-354-T-J3-PDC patient-derived endometrial carcinoma cell line growth inhibition [CLK]; active means viability on the fitted dose curve at most 10% of control; inactive means the rest
Settings: second compound 10 µM; first compound 0.003 µM
Labels: active, inactive

{"columns": ["Molecule", "Label"],
 "data": [
  ["C=CC(=O)Nc1cc(Nc2nccc(-c3cn(C)c4ccccc34)n2)c(OC)cc1N(C)CCN(C)C + CN1CCN(c2cc(C(=O)Nc3cc4cc(-c5cnn(C)c5)ccc4cn3)ccn2)CC1", "active"],
  ["CC(C)CC(NC(=O)C(Cc1ccccc1)NC(=O)c1cnccn1)B(O)O (centres undefined) + CNC(=O)c1ccc(Nc2nc(OC3CCCC3)c3c(-c4ccc5nc(C)oc5c4)c[nH]c3n2)c(OC)c1", "inactive"],
  ["CC(C)CC(NC(=O)C(Cc1ccccc1)NC(=O)c1cnccn1)B(O)O (centres undefined) + CN1CCN(c2cc(C(=O)Nc3cc4cc(-c5cnn(C)c5)ccc4cn3)ccn2)CC1", "active"],
  ["C=CC(=O)Nc1cc(Nc2nccc(-c3cn(C)c4ccccc34)n2)c(OC)cc1N(C)CCN(C)C + CNC(=O)c1ccc(Nc2nc(OC3CCCC3)c3c(-c4ccc5nc(C)oc5c4)c[nH]c3n2)c(OC)c1", "inactive"]
]}

---

System: 922993-354-T-J3-PDC complex spheroids, viability, % test/control
Experiment: Anticancer human tumor 922993-354-T-J3-PDC cell line growth inhibition [CLK];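 further: spheroids exposed to the agents for 7 days before readout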
Settings: curve of first compound; second compound 0.0316 µM
Recorded measurements of IC50, one per entry
Test readout: IC50 (µM)

{"columns": ["Compound", "Unit symbol", "Result operator", "Numeric readout"],
 "data": [
  ["NC(=O)C(=Cn1cnc(-c2cc(C(F)(F)F)cc(C(F)(F)F)c2)n1)c1cncnc1 + CNC(=O)c1ccc(Nc2nc(OC3CCCC3)c3c(-c4ccc5nc(C)oc5c4)c[nH]c3n2)c(OC)c1", "µM", "=", 0.583],
  ["COC1C=CCC(C)C(C)S(=O)(=O)NC(=O)c2ccc3c(c2)N(CC2CCC21)CC1(CCCc2cc(Cl)ccc21)CO3 (stereo not drawn) + CN1CCN(c2cc(C(=O)Nc3cc4cc(-c5cnn(C)c5)ccc4cn3)ccn2)CC1", "µM", "=", 5.39],
  ["CCCS(=O)(=O)Nc1ccc(F)c(C(=O)c2c[nH]c3ncc(-c4ccc(Cl)cc4)cc23)c1F + CNC(=O)c1ccc(Nc2nc(OC3CCCC3)c3c(-c4ccc5nc(C)oc5c4)c[nH]c3n2)c(OC)c1", "µM", ">", 10]
]}

---

In this section we review reported viability, T/C values for a set of compounds.
Tested on: 922993-354-T-J3-PDC complex spheroids, viability, % test/control
Experiment: Anticancer human tumor 922993-354-T-J3-PDC cell line growth inhibition [CLK];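 further: spheroids exposed to the agents for 7 days before readout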
Details: second compound 3.16 µM; first compound 0.0316 µM; stronger effect = lower value
Test readout: viability, T/C (%)

{"columns": ["Compound", "Test readout", "Numeric readout"],
 "data": [
  ["CCCS(=O)(=O)Nc1ccc(F)c(C(=O)c2c[nH]c3ncc(-c4ccc(Cl)cc4)cc23)c1F + CNC(=O)c1ccc(Nc2nc(OC3CCCC3)c3c(-c4ccc5nc(C)oc5c4)c[nH]c3n2)c(OC)c1", "viability, T/C", 32],
  ["Cn1ncnc1[C@H]1c2n[nH]c(=O)c3cc(F)cc(c23)N[C@@H]1c1ccc(F)cc1 + CN1CCN(c2cc(C(=O)Nc3cc4cc(-c5cnn(C)c5)ccc4cn3)ccn2)CC1", "viability, T/C", 0.95],
  ["CC1COCCN1c1cc(C2(S(C)(=N)=O)CC2)nc(-c2ccnc3[nH]ccc23)n1 (stereo not drawn) + CN1CCN(c2cc(C(=O)Nc3cc4cc(-c5cnn(C)c5)ccc4cn3)ccn2)CC1", "viability, T/C", 0.13]
]}
